# TESTED SYSTEM: recombinant human ACC1 (rhACC1) (Homo sapiens, UniProt Q13085, DEL44-44)
# Construct: recombinant baculovirus containing full length human ACC1 cDNA
# ASSAY REMARKS: recombinant hACC1 Transcreener assay (direct inhibition of ACC1 activity)
# CONDITION PARAMETERS: Transcreener ADP detection FP assay, 50 μM ATP, 30 μM acetyl-CoA, 120 min at 25° C.
PROPERTY: IC50 (nM)

Some entries whose results are on file:
CC(C)n1ncc2c1C(=O)CC1(CCN(C(=O)c3cn4ccccc4n3)CC1)C2 [Example 11A-28] ... 917
Cc1nn(C(C)C)c2c1CC1(CCN(C(=O)c3ccc4[nH]ncc4c3)CC1)CC2=O ... 113
Cc1cc(C(=O)N2CCC3(CC2)CC(=O)c2c(cnn2C(C)(C)C)C3)n(-c2cccnc2)n1 [Example 11A-5] ... 16400
CCCn1ncc2c1C(=O)CC1(CCN(C(=O)c3ccc(Cl)c(C)c3)CC1)C2 ... 4260

(I) CC(C)(C)n1ncc2c1C(=O)CC1(CCN(C(=O)c3cnc4cn[nH]c4c3)CC1)C2 [Example 11A-58]
(II) CC(C)n1ncc2c1C(=O)CC1(CCN(C(=O)c3c(O)cnc4ccccc34)CC1)C2
[ask] I need your help: which of the pair I , II has higher IC50? Give the chosen item's label as your response.
[reply] II
(II: 9790 nM, I: 131 nM)
